- System: BT-474 cells
- method-description: Cell proliferation assay Method A (ATPlite), BT-474
- Type: cell-based
- condition-notes: Homo sapiens, 72 hours, read-out: antiproliferative activity IC50, BT-474
Measured IC50 values are reported for all entries that follow.
result-type: IC50

1) O=C(NO)c1cnc(N(CCCO)Cc2cc3nc(-c4cccc5[nH]ncc45)nc(N4CCOCC4)c3s2)nc1 | 1000 to 10000 nM
2) CN(Cc1cc2nc(-c3cnc(N)nc3)nc(N3CCOCC3)c2s1)c1ncc(C(=O)NO)cn1 | < 100 nM
3) CN(Cc1cc2nc(-c3cc(F)cc4[nH]ncc34)nc(N3CCOCC3)c2s1)c1ncc(C(=O)NO)cn1 | < 100 nM
4) CN(Cc1cc2nc(-c3cccc4[nH]ncc34)nc(N3CCOCC3)c2s1)c1ncc(C(=O)NO)cn1 | < 100 nM
5) CN(Cc1cc2nc(-c3cccc(O)c3)nc(N3CCOCC3)c2s1)c1ncc(C(=O)NO)cn1 | < 100 nM
6) Cc1nc(N)ncc1-c1nc(N2CCOCC2)c2sc(CN(C)c3ncc(C(=O)NO)cn3)cc2n1 | < 100 nM
7) CN(Cc1cc2nc(-c3cccc(CO)c3)nc(N3CCOCC3)c2s1)c1ncc(C(=O)NO)cn1 | < 100 nM
8) CN(Cc1cc2nc(-c3cccc4[nH]ncc34)nc(N3CCOCC3)c2s1)c1ncc(/C=C/C(=O)NO)cn1 | 100 to 1000 nM
9) CN(Cc1cc2nc(-c3cccnc3)nc(N3CCOCC3)c2s1)c1ncc(C(=O)NO)cn1 | < 100 nM
10) COCCN(Cc1cc2nc(-c3cccc4[nH]ncc34)nc(N3CCOCC3)c2s1)c1ncc(C(=O)NO)cn1 | 100 to 1000 nM
11) CNc1ncc(-c2nc(N3CCOCC3)c3sc(CN(C)c4ncc(C(=O)NO)cn4)cc3n2)cn1 | < 100 nM
12) CCN(Cc1cc2nc(-c3cccc4[nH]ncc34)nc(N3CCOCC3)c2s1)c1ncc(C(=O)NO)cn1 | < 100 nM
13) O=C(NO)c1ccc(NCc2cc3nc(-c4cccc5[nH]ncc45)nc(N4CCOCC4)c3s2)nc1 | 100 to 1000 nM
14) O=C(NO)c1cnc(NCc2cc3nc(-c4cccc5[nH]ncc45)nc(N4CCOCC4)c3s2)nc1 | < 100 nM
15) CN(C)c1ncc(-c2nc(N3CCOCC3)c3sc(CN(C)c4ncc(C(=O)NO)cn4)cc3n2)cn1 | < 100 nM
